Would you kindly list EOSINOPHIL for each of these compounds?
- Species on record: Rattus norvegicus
- METHOD DESCRIPTION: DrugMatrix - Regimen: Daily Repeat
- Format: toxicity, organism-based, Sprague-Dawley
- Parameters: regimen Daily Repeat, gender Male, age 6-8 weeks
- REPORTED CONDITIONS: in vivo, po, 0 mg/kg, 72 h, tissue Blood, route oral GAVAGE, dose level Control, time 3 day, […]
One number for each entry, in %.

# annotated cases, reported EOSINOPHIL shown
O=NN(CCCl)C(=O)NC1CCCCC1; 0.5
CN(C)c1nc(N(C)C)nc(N(C)C)n1; 0.5
CCC(C)n1ncn(-c2ccc(N3CCN(c4ccc(OCC5COC(Cn6cncn6)(c6ccc(Cl)cc6Cl)O5)cc4)CC3)cc2)c1=O (configuration not stated); 0.67

Dear colleague, could you send me EOSINOPHIL for each of the items below? Thanks.
1. Cc1oncc1C(=O)Nc1ccc(C(F)(F)F)cc1 [LEFLUNOMIDE]
2. CCOC(=O)C1=C(COCCN)NC(C)=C(C(=O)OC)C1c1ccccc1Cl (configuration not stated)
3. O=c1oc2ccccc2c(O)c1Cc1c(O)c2ccccc2oc1=O
4. O=C(O)CCCc1ccc(N(CCCl)CCCl)cc1

OUT:
1. 0.33
2. 0.5
3. 0
4. 0.67

This collection of values is drawn from ChEMBL document CHEMBL3885881.
